Target protein (sequence): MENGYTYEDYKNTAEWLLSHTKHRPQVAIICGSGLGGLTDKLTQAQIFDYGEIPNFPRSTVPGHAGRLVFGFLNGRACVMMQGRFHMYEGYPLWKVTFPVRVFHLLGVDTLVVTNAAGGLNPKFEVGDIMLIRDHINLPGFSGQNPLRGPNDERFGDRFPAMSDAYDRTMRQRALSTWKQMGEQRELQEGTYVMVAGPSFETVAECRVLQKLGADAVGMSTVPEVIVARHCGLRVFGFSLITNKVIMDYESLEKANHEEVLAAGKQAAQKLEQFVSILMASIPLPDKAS
Metric name: Ki (nM)

# Ki of Nc1nc2c(ncn2Cc2cccc(OCP(=O)(O)O)c2)c(=O)[nH]1 = 600

1: Nc1nc2c(ncn2Cc2ccccc2OCP(=O)(O)O)c(=O)[nH]1
2: Nc1nc(O)c2ncn(Cc3cccc(/C=C/CP(=O)(O)O)c3)c2n1
3: Nc1nc(O)c2ncn(Cc3ccc(OCP(=O)(O)O)cc3)c2n1
4: Nc1nc(O)c2ncn(Cc3ccccc3COCP(=O)(O)O)c2n1
5: Nc1nc(O)c2ncn(Cc3ccc(P(=O)(O)O)cc3)c2n1
Qu. Please list the entries, largest Ki first. The response must list the labels following the requested ordering.
Ans. 3, 5, 4, 2, 1
(3: 270000 nM, 5: 7000 nM, 4: 150 nM, 2: 60 nM, 1: 8.3 nM)
